Tested on: AMARE
Test: Post-emergence herbicidal activity, glasshouse pot test; further: key: 5=total damage to plant; 0=no damage to plant
Format: in vivo
Conditions: Amaranthus retroflexus; application post-emergence; rate 1000 g/Ha; evaluated after 13 days
Reported Post-emergence herbicidal activity AMARE (damage score 0-5) by item:
Outcome Measure: Post-emergence herbicidal activity AMARE (damage score 0-5)

# Compound, Recorded Number
data = [
    ("Cc1ccc(-c2cnc(N3C(=O)N(C)C(C)C3O)cc2C(F)(F)F)cn1 (stereo not drawn)", 5),
    ("CC1C(O)N(c2cc(Cl)c(C(=O)NC(C)(C)C)cn2)C(=O)N1C (stereo not drawn)", 5),
    ("CN1C(=O)N(c2cc(C(F)(F)F)ccn2)C(O)C1O (stereo not drawn)", 5),
    ("Cc1cnc(N2C(=O)N(C)C(C)C2O)cc1C(F)(F)F (single isomer, unassigned)", 5),
    ("CC1NC(=O)N(c2cc(C(F)(F)Cl)ccn2)C1O (stereo not drawn)", 5),
    ("COC1C(O)N(c2cc(C(F)(F)F)c(I)cn2)C(=O)N1C (stereo not drawn)", 5),
    ("CCOC1C(OC(=O)[C@@H](OC(C)=O)c2ccccc2)N(c2cc(C(F)(F)F)ccn2)C(=O)N1C (stereo partly drawn)", 5),
    ("CN1C(=O)N(c2ccc(C(F)(F)F)cn2)C(O)C1O (stereo not drawn)", 4),
    ("CN1C(=O)N(c2cc(C(F)(F)F)ccn2)C(O)C1C(F)(F)F (stereo not drawn)", 3),
]
